Molecular target: CRAC channel (Homo sapiens, UniProt Q96D31)
Construct: endogenous in cells; host or cells: HEK293 (ECACC), untransfected
Sequence (Q96D31 whole entry): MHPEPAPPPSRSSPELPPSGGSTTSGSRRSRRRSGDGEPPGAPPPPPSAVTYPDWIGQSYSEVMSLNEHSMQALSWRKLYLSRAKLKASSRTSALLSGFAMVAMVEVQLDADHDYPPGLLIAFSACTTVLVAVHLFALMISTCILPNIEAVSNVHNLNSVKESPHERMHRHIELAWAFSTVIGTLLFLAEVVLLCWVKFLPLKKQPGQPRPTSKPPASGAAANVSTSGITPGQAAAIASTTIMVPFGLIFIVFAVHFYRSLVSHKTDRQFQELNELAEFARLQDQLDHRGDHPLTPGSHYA
Experiment: HEK Calcium Influx Assay (FLIPR), inhibition of store-operated Ca2+ entry after thapsigargin store depletion
Type: cell-based
Conditions: 10 μM compound, HEK293 cells, read-out: % inhib. [@ 10 μM] FLIPR
Method: The effect of compounds of the invention on intracellular [Ca^2+] was tested in the HEK293 cell line (ECACC). HEK293 cells were cultured in DMEM/F12/Glutamax (Gibco) containing 10% FCS (Gibco), and maintained at 37° C., 5% CO2. […] Intracellular changes in [Ca^2+] were subsequently monitored with the FLIPR device (Molecular Devices). […] Increases in intracellular [Ca^2+] due to pre-activated SOC channels were monitored for 15 min until intracellular Ca^2+ levels had declined into a steady-state. […]
result-type: inhibition at 10 µM

Here are 3 compounds together with their reported answers.
line_notation=Cc1cc(N2CCc3[nH]c(-c4c(F)cccc4F)cc3C2)n(C)n1 experimental_target="CRAC channel (Homo sapiens, UniProt Q96D31)" result="> 70%"
line_notation=Cc1sc(-c2ccccc2)nc1N1CCc2[nH]c(-c3c(F)cccc3F)cc2C1 experimental_target="CRAC channel (Homo sapiens, UniProt Q96D31)" result="< 50%"
line_notation=CCn1nc(N2CCc3[nH]c(-c4c(F)cccc4F)cc3C2)cc1C1(C(F)(F)F)CC1 experimental_target="CRAC channel (Homo sapiens, UniProt Q96D31)" result="> 70%"

Turning now to a further compound:
Query: Requested read-out: inhibition at 10 µM. Entry: Cc1sc(-c2ccn(C)n2)nc1N1CCc2[nH]c(-c3c(F)cccc3F)cc2C1
Result: > 70%

###

Biological target: CRAC channel (Homo sapiens, UniProt Q96D31)
Construct: endogenous in cells; host or cells: HEK293 (ECACC), untransfected
Assay: HEK Calcium Influx Assay (FLIPR), inhibition of store-operated Ca2+ entry after thapsigargin store depletion
Format: cell-based
Details: 10 μM compound, HEK293 cells, read-out: % inhib. [@ 10 μM] FLIPR
result-type: inhibition at 10 µM

Here are 4 molecules together with their reported answers.
molecule=COc1cc(C(F)(F)F)ncc1N1CCc2[nH]c(-c3c(F)cccc3F)cc2C1 experimental_target="CRAC channel (Homo sapiens, UniProt Q96D31)" result_type="inhibition at 10 µM" result="< 50%"
molecule=COc1cc(C#N)ccc1N1CCc2[nH]c(-c3c(F)cccc3Cl)cc2C1=O experimental_target="CRAC channel (Homo sapiens, UniProt Q96D31)" result_type="inhibition at 10 µM" result="50 to 70%"
molecule=CCCCc1cc2c([nH]1)CCN(c1cnc(S(C)(=O)=O)cc1C)C2 experimental_target="CRAC channel (Homo sapiens, UniProt Q96D31)" result_type="inhibition at 10 µM" result="> 70%"
molecule=CNS(=O)(=O)c1ccc(N2CCc3[nH]c(-c4c(F)cccc4F)cc3C2)c(C)c1 experimental_target="CRAC channel (Homo sapiens, UniProt Q96D31)" result_type="inhibition at 10 µM" result="< 50%"

Turning now to a further molecule:
Query: Requested read-out: inhibition at 10 µM. Entry: Cc1sc(-c2ccncc2)nc1N1CCc2[nH]c(-c3c(F)cccc3F)cc2C1
Result: > 70%
